methodDescription: recombinant barcode read abundance after kanamycin selection (control-corrected) (log10(CPM+1)); higher = more efficient recombination; sequences stand for … in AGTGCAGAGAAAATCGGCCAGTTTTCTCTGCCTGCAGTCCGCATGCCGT…ATTTATGCAGCGGACTGCCTTTCTCCCAAAGTGATAAACCGGACAGTATCATGGACCGGTTTTCCCGGTAATCCGTATTTGCAAGGTTGGTTTCACT; site = the 11-nt target
Output Criterion met for recombinant barcode read abundance (log10) not less than 0.2; output Criterion not met otherwise.

>>> assignedclass("CATATTAAATGGGTTCTAACCTGTTGCCTTT [CATATTACTAG_LTGcore_AA_RTGcore_AA] (site CATATTACTAG) (LTG core: AA, RTG core: AA)")
"Criterion met"
>>> assignedclass("AAACATGTATGGGTTCTAACCTGTTGCCTTA [AAACATGCTAG_LTGcore_TA_RTGcore_TA] (site AAACATGCTAG) (LTG core: TA, RTG core: TA)")
"Criterion not met"

Q: recombinant barcode read abundance (log10) >= 0.2 for TAGAGGGCTTGGGTTCTAACCTGTTGCGGTT [TAGAGGGCTCC_LTGcore_CT_RTGcore_AA] (site TAGAGGGCTCC) (LTG core: CT, RTG core: AA) ?
Ans: Criterion not met

Q: Check the entry GCGGGACTATGGGTTCTAACCTGTTGCCTAG [GCGGGACCTAG_LTGcore_TA_RTGcore_CT] (site GCGGGACCTAG) (LTG core: TA, RTG core: CT) : does recombinant barcode read abundance (log10) equal or exceed 0.2?
Ans: Criterion not met

Q: Evaluate TAAGAATCTTGGGTTCTAACCTGTTGCCTTT [TAAGAATCTAG_LTGcore_CT_RTGcore_AA] (site TAAGAATCTAG) (LTG core: CT, RTG core: AA) : recombinant barcode read abundance (log10) at minimum 0.2?
Ans: Criterion met

---

Exercise: for every item that follows, state its recorded recombinant barcode read abundance (log10).
methodDescription: recombinant barcode read abundance after kanamycin selection (control-corrected) (log10(CPM+1)); higher = more efficient recombination; sequences stand for … in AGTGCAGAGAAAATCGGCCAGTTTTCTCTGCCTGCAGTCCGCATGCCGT…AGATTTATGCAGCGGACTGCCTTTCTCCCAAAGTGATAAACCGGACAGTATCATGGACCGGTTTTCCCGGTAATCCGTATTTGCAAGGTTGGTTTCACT; site = the 11-nt target
One number for each entry.

>>> quantitativeresult("GCTGCGACTTGGGTTCTAACCTGTTGCCT (site GCGGCGACTAG)")
0.0147
>>> quantitativeresult("GCCTCGGCTTGGGTTCTAACCTGTTGCCT (site GCGTCGGCTAG)")
0.0495
>>> quantitativeresult("ACAGTAGCTTGGGTTCTAACCTGTTGCTG (site ACACTAGCTCA)")
0.0586

Answer for every listed entry: what is its recombinant barcode read abundance (log10)? The entries follow.
1. CTAACTCCTTGGGTTCTAACCTGTTGCAT (site CTAACTCCTAT)
2. ATATACTCTTGGGTTCTAACCTGTTGCCG (site ATATACTCTCG)
3. GTTAACTCTTGGGTTCTAACCTGTTGCCT (site GTAAACTCTAG)
4. CGGCCCTCTTGGGTTCTAACCTGTTGCCT (site CTGCCCTCTAG)
5. CGAGGGTCTTGGGTTCTAACCTGTTGCTT (site TGAGGGTCTAA)
6. TTGCGAACTTGGGTTCTAACCTGTTGCCT (site TTGCCAACTAG)

Ans:
[1.1, 2.38, 0.2, 0.185, 0.147, 0.269]
